biological target: Frog KOR (Lithobates pipiens); experiment: Inhibition of isoproterenol-induced cAMP production; format: cell-based, Rana pipiens; settings: log EC50 ±SEM
Sequence (B0JCV9 1-390): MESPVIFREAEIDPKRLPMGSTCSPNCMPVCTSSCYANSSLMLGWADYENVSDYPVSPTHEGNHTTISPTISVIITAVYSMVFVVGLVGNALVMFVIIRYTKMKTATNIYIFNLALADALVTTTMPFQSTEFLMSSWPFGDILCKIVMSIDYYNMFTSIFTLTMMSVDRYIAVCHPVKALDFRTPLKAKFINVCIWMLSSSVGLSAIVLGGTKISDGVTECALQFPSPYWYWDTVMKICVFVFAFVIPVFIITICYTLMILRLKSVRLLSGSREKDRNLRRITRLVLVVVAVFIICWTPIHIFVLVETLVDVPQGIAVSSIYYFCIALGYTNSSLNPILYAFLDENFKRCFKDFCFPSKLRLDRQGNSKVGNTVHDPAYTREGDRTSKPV
No end group written: not given here.
quantity_kind: EC50 (nM)

| residue_string | quantity_kind | number |
| --- | --- | --- |
| YGGFLRKYPK [α-Neoendorphin] | EC50 | 79.4 |

* * *

target: UniProt B0JCV9; assay: Inhibition of isoproterenol-induced cAMP production; format: cell-based, Rana pipiens; conditions: EC50, Table 2; HEK 293T cells; NA = not active
pEC50: −log10 of the molar value.
quantity_kind: pEC50

| compound | test_system | number |
| --- | --- | --- |
| C[C@@H](NC(=O)[C@@H](N)Cc1ccc(O)cc1)C(=O)NCC(=O)N(C)[C@@H](Cc1ccccc1)C(=O)NCCO [DAMGO, [D-Ala^2,N-MePhe^4,Gly-ol]-enkephalin] | UniProt B0JCV9 | 5.62 |
